Property name: pKi
Convention used: pKi is expressed as -log10 of the molar concentration.

Enquiry: Report pKi from Collagenase 3 (Homo sapiens, UniProt P45452) testing of O=C(O)CNS(=O)(=O)CCc1ccc(-c2ccccc2)cc1
Return: 8.30

Enquiry: Please respond with reported pKi (system Collagenase 3 (Homo sapiens, UniProt P45452)) for O=C(CNS(=O)(=O)CCc1ccc(Cl)s1)NO .
Return: 8.22

Enquiry: # return pKi of O=C(NO)[C@@H]1CCCN1S(=O)(=O)CCc1ccc(Cl)s1 (system: Collagenase 3 (Homo sapiens, UniProt P45452))
Return: 8.52

Enquiry: Report the value of pKi obtained on Collagenase 3 (Homo sapiens, UniProt P45452) for O=C(NO)[C@@H]1CCCN1S(=O)(=O)CCc1ccc2c(c1)OCO2 .
Return: 8.00

Enquiry: Output reported pKi of the compound O=C(NO)[C@H]1CCCN1S(=O)(=O)CCc1ccccc1 on Collagenase 3 (Homo sapiens, UniProt P45452).
Return: 7.85

Enquiry: With Collagenase 3 (Homo sapiens, UniProt P45452) as the test system, provide measured pKi for this compound: O=C(CNS(=O)(=O)c1ccc(-c2ccccc2)cc1)NO
Return: 8.70

Enquiry: Report measured pKi on Collagenase 3 (Homo sapiens, UniProt P45452); entry: O=C(O)[C@@H]1CCCN1S(=O)(=O)c1ccc(Cl)s1
Return: 6.76
